Test Details: Inhibition of binding of biotinylated mouse BIM BH3-26mer peptide to GST-tagged mouse BCL-Xl delta C25 mutant by AlphaScreen/[…] assay
Under this convention, Yes denotes IC50 strictly below 40 µM and No denotes IC50 at or above 40 µM.

Does the reported IC50 of "CCCN(C(=O)N[C@@H](CSCC(C)C)C(=O)O)C(=O)c1cccc(C#Cc2cccc(F)c2)c1" stay below 40 µM?
No

Does the reported IC50 of "CCCN(C(=O)N[C@@H](CSCc1ccccc1)C(=O)O)C(=O)c1cccc(/C=C/c2ccccc2)c1" stay below 40 µM?
No

Does the reported IC50 of "CCCN(C(=O)N[C@@H](CSCc1ccccc1)C(=O)OC)C(=O)c1cccc(-c2ccccc2)c1" stay below 40 µM?
No

Does the reported IC50 of "CCCN(C(=O)N[C@@H](Cc1c[nH]c2ccccc12)C(=O)O)C(=O)c1cccc(-c2ccccc2)c1" stay below 40 µM?
No

Does the reported IC50 of "CCCN(C(=O)N[C@@H](CSCCCc1ccccc1)C(=O)O)C(=O)c1cccc(C#Cc2ccccc2)c1" stay below 40 µM?
No

Does the reported IC50 of "CCCN(C(=O)N[C@@H](CSCCc1ccccc1)C(=O)O)C(=O)c1cccc(C#Cc2ccccc2)c1" stay below 40 µM?
Yes

Does the reported IC50 of "CCCN(C(=O)N[C@@H](CSCC(C)C)C(=O)O)C(=O)c1cccc(C#Cc2ccc(Oc3ccccc3)cc2)c1" stay below 40 µM?
No

Does the reported IC50 of "CCCN(C(=O)N[C@@H](CSCC(C)C)C(=O)O)C(=O)c1cccc(C#Cc2ccc(F)cc2F)c1" stay below 40 µM?
Yes

Does the reported IC50 of "CCCN(C(=O)N[C@@H](CSCc1ccccc1)C(=O)O)C(=O)c1cccc(-c2ccc(Cl)c(Cl)c2)c1" stay below 40 µM?
No

Does the reported IC50 of "CCCCN(C(=O)N[C@@H](CSCc1ccccc1)C(=O)O)C(=O)c1cccc(-c2ccccc2)c1" stay below 40 µM?
No

Does the reported IC50 of "CCCN(C(=O)N[C@@H](CSCc1ccc(Br)cc1)C(=O)O)C(=O)c1cccc(C#Cc2ccc(F)cc2F)c1" stay below 40 µM?
Yes

Does the reported IC50 of "CCCN(C(=O)N[C@@H](CCc1ccccc1)C(=O)O)C(=O)c1cccc(-c2ccccc2)c1" stay below 40 µM?
No

Does the reported IC50 of "CCCN(C(=O)N[C@@H](CSCc1ccccc1)C(=O)O)C(=O)c1cccc(-c2ccc(F)cc2)c1" stay below 40 µM?
No

Does the reported IC50 of "CCCN(C(=O)N[C@@H](CSC(C)C)C(=O)O)C(=O)c1cccc(C#Cc2ccccc2)c1" stay below 40 µM?
Yes

Does the reported IC50 of "CCCN(C(=O)N[C@@H](Cc1ccc2ccccc2c1)C(=O)O)C(=O)c1cccc(-c2ccccc2)c1" stay below 40 µM?
No

Does the reported IC50 of "Cc1ccc(CN(C(=O)N[C@@H](CSCc2ccccc2)C(=O)O)C(=O)c2cccc(-c3ccccc3)c2)cc1" stay below 40 µM?
No
